Provenance of the data: patent US9884825B2

System: KB cell
run-description: Cytotoxicity against KB cell line
Assay type: cell-based
settings: Homo sapiens, mean ± spread, unit inferred, read-out: IC50 KB cell (Table 6)
Response field label takes Satisfied when IC50 is strictly below 2000 nM and Not satisfied in all other cases.

// below: answered compounds
INSERT INTO assay_data (compound, category_label) VALUES
  ('COc1ccc(/C=C2\CN(Cc3cn(CCCNc4ccnc5cc(Cl)ccc45)nn3)C/C(=C\c3ccc(OC)c(OC)c3)C2=O)cc1OC', 'Not satisfied'),
  ('O=C1/C(=C/c2ccc(Cl)cc2)CN(Cc2cn(CCCNc3ccnc4cc(Cl)ccc34)nn2)C/C1=C\c1ccc(Cl)cc1', 'Satisfied'),
  ('O=C1/C(=C/c2cccc(Br)c2)CN(Cc2cn(CCNc3ccnc4cc(Cl)ccc34)nn2)C/C1=C\c1cccc(Br)c1', 'Not satisfied');

Ask: Confirm or reject: IC50 of O=C1/C(=C/c2ccc(Br)cc2)CN(Cc2cn(CCNc3ccnc4cc(Cl)ccc34)nn2)C/C1=C\c1ccc(Br)cc1 lies strictly below 2000 nM
Reply: Satisfied

Ask: Now the compound Cc1ccc(/C=C2\CN(Cc3cn(CCCNc4ccnc5cc(Cl)ccc45)nn3)C/C(=C\c3ccc(C)cc3)C2=O)cc1
Reply: Not satisfied

Ask: Field entry: COc1cccc2c1C(=O)c1c(O)c3c(c(O)c1C2=O)C[C@@](O)(C(=O)CO)C[C@@H]3O[C@H]1C[C@H](N)[C@H](O)[C@H](C)O1 [Doxorubicin, reference compound]
Reply: Satisfied

----------
System: PC3 cell
run-description: Cytotoxicity against PC3 cell line
Format: cell-based
settings: Homo sapiens, PC-3, mean ± spread, unit inferred, read-out: IC50 PC3 cell (Table 6)
measured-endpoint: IC50 (nM)
Response body: numeric value in nM, unit text excluded.

Worked examples, 7 molecules total:
INSERT INTO assay_data (molecule, subject_of_test, measured_endpoint, value_reported) VALUES
  ('O=C1/C(=C/c2ccc(F)cc2)CN(Cc2cn(CCCNc3ccnc4cc(Cl)ccc34)nn2)C/C1=C\c1ccc(F)cc1', 'PC3 cell', 'IC50', 3000),
  ('Cc1ccc(/C=C2\CN(Cc3cn(CCCNc4ccnc5cc(Cl)ccc45)nn3)C/C(=C\c3ccc(C)cc3)C2=O)cc1', 'PC3 cell', 'IC50', 2700),
  ('O=C1/C(=C/c2cccc(Br)c2)CN(Cc2cn(CCNc3ccnc4cc(Cl)ccc34)nn2)C/C1=C\c1cccc(Br)c1', 'PC3 cell', 'IC50', 2800),
  ('CCc1ccc(/C=C2\CN(Cc3cn(CCNc4ccnc5cc(Cl)ccc45)nn3)C/C(=C\c3ccc(CC)cc3)C2=O)cc1', 'PC3 cell', 'IC50', 3700),
  ('O=C1/C(=C/c2ccc(Br)cc2)CN(Cc2cn(CCNc3ccnc4cc(Cl)ccc34)nn2)C/C1=C\c1ccc(Br)cc1', 'PC3 cell', 'IC50', 1500),
  ('COc1cccc2c1C(=O)c1c(O)c3c(c(O)c1C2=O)C[C@@](O)(C(=O)CO)C[C@@H]3O[C@H]1C[C@H](N)[C@H](O)[C@H](C)O1 [Doxorubicin, reference compound]', 'PC3 cell', 'IC50', 230),
  ('O=C1/C(=C/c2ccc(Br)cc2)CN(Cc2cn(CCCNc3ccnc4cc(Cl)ccc34)nn2)C/C1=C\c1ccc(Br)cc1', 'PC3 cell', 'IC50', 1700);

Ask: Checklist item: IC50 tested on PC3 cell, entry COc1ccc(/C=C2\CN(Cc3cn(CCCNc4ccnc5cc(Cl)ccc45)nn3)C/C(=C\c3ccc(OC)cc3)C2=O)cc1 , value?
Reply: 11000

----------
# note: exactly 200 °C is not below, so it is criterion not met; use criterion met for melting point strictly under it

INSERT INTO results (molecule, category_label) VALUES
  ('CCCc1ccc(/C=C2\CN(S(=O)(=O)c3ccccc3)C/C(=C\c3ccc(CCC)cc3)C2=O)cc1', 'criterion met'),
  ('COc1ccc(/C=C2\CN(S(=O)(=O)c3ccccc3)C/C(=C\c3ccc(OC)cc3)C2=O)cc1', 'criterion not met');

Ask: Is melting point of Cc1ccc(/C=C2\CN(S(=O)(=O)c3ccccc3)C/C(=C\c3ccc(C)cc3)C2=O)cc1 strictly below 200 °C?
Reply: criterion not met

Ask: What about this molecule? CC(C)(C)c1ccc(/C=C2\CN(Cc3ccccc3)C/C(=C\c3ccc(C(C)(C)C)cc3)C2=O)cc1
Reply: criterion met

Ask: Now try C#CCN1CC(=Cc2ccc(C(C)C)cc2)C(=O)C(=Cc2ccc(C(C)C)cc2)C1 [10c] .
Reply: criterion met

Ask: Try CC(C)c1ccc(/C=C2\CN(Cc3ccccc3)C/C(=C\c3ccc(C(C)C)cc3)C2=O)cc1 next.
Reply: criterion met

Ask: Let us now turn to CCCCCn1cc(CN2CC(=Cc3ccc(CCC)cc3)C(=O)C(=Cc3ccc(CCC)cc3)C2)nn1 [15c]
Reply: criterion met

Ask: Consider next the molecule CCCCc1ccc(/C=C2\CN(Cc3ccccc3)C/C(=C\c3ccc(CCCC)cc3)C2=O)cc1 in the same way.
Reply: criterion met

----------
Measured pIC50, listed per entry for reference.
Tested on: human cervical cancer cells (HeLa)
run-description: MTT cytotoxicity assay, HeLa cells
Assay type: cell-based
settings: Homo sapiens; HeLa cell; mean ± spread; unit inferred; read-out: IC50 HeLa cell (Table 6)
Reminder that pIC50 means the negative base-10 logarithm of the concentration expressed in mol/L.

Recorded results for 5 compounds are shown here.
INSERT INTO assay_data (compound_structure, value_reported) VALUES
  ('O=C1/C(=C/c2ccc(Cl)cc2)CN(Cc2cn(CCNc3ccnc4cc(Cl)ccc34)nn2)C/C1=C\c1ccc(Cl)cc1', 5.68),
  ('O=C1/C(=C/c2ccc(F)cc2)CN(Cc2cn(CCNc3ccnc4cc(Cl)ccc34)nn2)C/C1=C\c1ccc(F)cc1', 5.66),
  ('O=C1/C(=C/c2ccc(Cl)cc2)CN(Cc2cn(CCCNc3ccnc4cc(Cl)ccc34)nn2)C/C1=C\c1ccc(Cl)cc1', 5.74),
  ('COc1ccc(/C=C2\CN(Cc3cn(CCCNc4ccnc5cc(Cl)ccc45)nn3)C/C(=C\c3ccc(OC)c(OC)c3)C2=O)cc1OC', 5.60),
  ('O=C1/C(=C/c2ccc(F)cc2)CN(Cc2cn(CCCNc3ccnc4cc(Cl)ccc34)nn2)C/C1=C\c1ccc(F)cc1', 5.59);

Ask: I have this compound here, O=C1/C(=C/c2ccc(Br)cc2)CN(Cc2cn(CCNc3ccnc4cc(Cl)ccc34)nn2)C/C1=C\c1ccc(Br)cc1 , and I need its recorded pIC50.
Reply: 5.57

Ask: Check Cc1ccc(/C=C2\CN(Cc3cn(CCCNc4ccnc5cc(Cl)ccc45)nn3)C/C(=C\c3ccc(C)cc3)C2=O)cc1 too.
Reply: 5.55

Ask: And CCc1ccc(/C=C2\CN(Cc3cn(CCNc4ccnc5cc(Cl)ccc45)nn3)C/C(=C\c3ccc(CC)cc3)C2=O)cc1 ?
Reply: 5.28

----------
System: DU145 cell
run-description: Cytotoxicity against DU145 cell line
Format: cell-based
settings: Homo sapiens, DU-145, mean ± spread, unit inferred, read-out: IC50 DU145 cell (Table 6)
measured-endpoint: IC50
Form entry: enter the amount, then its unit.

The following compounds have reported results that may help.
INSERT INTO assay_data (compound, measured_endpoint, value_reported) VALUES
  ('COc1cccc2c1C(=O)c1c(O)c3c(c(O)c1C2=O)C[C@@](O)(C(=O)CO)C[C@@H]3O[C@H]1C[C@H](N)[C@H](O)[C@H](C)O1 [Doxorubicin, reference compound]', 'IC50', '0.47 µM'),
  ('O=C1/C(=C/c2ccc(Br)cc2)CN(Cc2cn(CCNc3ccnc4cc(Cl)ccc34)nn2)C/C1=C\c1ccc(Br)cc1', 'IC50', '6.6 µM');

Ask: // lookup IC50 for COc1ccc(/C=C2\CN(Cc3cn(CCCNc4ccnc5cc(Cl)ccc45)nn3)C/C(=C\c3ccc(OC)c(OC)c3)C2=O)cc1OC
Reply: 6.7 µM

Ask: Same thing, different compound: COc1ccc(/C=C2\CN(Cc3cn(CCCNc4ccnc5cc(Cl)ccc45)nn3)C/C(=C\c3ccc(OC)cc3)C2=O)cc1
Reply: 6.7 µM

Ask: Again, but for O=C1/C(=C/c2ccc(Cl)cc2)CN(Cc2cn(CCCNc3ccnc4cc(Cl)ccc34)nn2)C/C1=C\c1ccc(Cl)cc1
Reply: 1.9 µM

Ask: Follow-up item: O=C1/C(=C/c2ccc(F)cc2)CN(Cc2cn(CCNc3ccnc4cc(Cl)ccc34)nn2)C/C1=C\c1ccc(F)cc1
Reply: 3.7 µM

Ask: How about this compound: CCc1ccc(/C=C2\CN(Cc3cn(CCNc4ccnc5cc(Cl)ccc45)nn3)C/C(=C\c3ccc(CC)cc3)C2=O)cc1
Reply: 6.5 µM

Ask: Then this compound: O=C1/C(=C/c2ccc(F)cc2)CN(Cc2cn(CCCNc3ccnc4cc(Cl)ccc34)nn2)C/C1=C\c1ccc(F)cc1
Reply: 5.3 µM
